Target: T1, cyno CTLA-4 expressed on 293 cells (293-cynoCTLA-4 cells) (cyno, UniProt G7PL88 36-223)
T1 construct: also called cynomolgus CTLA-4
T1 sequence: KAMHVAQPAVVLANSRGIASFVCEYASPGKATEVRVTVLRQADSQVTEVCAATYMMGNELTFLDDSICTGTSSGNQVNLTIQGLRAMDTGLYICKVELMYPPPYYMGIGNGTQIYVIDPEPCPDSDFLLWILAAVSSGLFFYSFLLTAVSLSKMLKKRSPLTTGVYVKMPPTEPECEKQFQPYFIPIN
Assay: flow cytometry (MFI) on 293 cells expressing cynomolgus CTLA-4, Alexa 488 anti-human (H+L) detection
Experimental: The culture medium was aspirated, and the cells were washed twice with HBSS (Hanks Balanced Salt Solution, Invitrogen). The cells were treated with enzyme-free cell dissociation solution (Versene solution, Invitrogen) and collected. The cells were then washed twice with HBSS, cell counts were determined, and cells were resuspended with HBSS at 2×10⁶ cells/mL. […]
EC50 (read off the curve) reference

Which EC50 (read off the curve) reading was recorded for the binder CL25 (antibody, human IgG1, V domains shown, Human heavy-chain-only antibody (HCAb): two heavy chains, no light chain; also called clone25) VH: EVQLVETGGGLIQPGGSLRLSCAASGFTVSSNYMSWVRQAPGKGLEWVSVIYSGGSTYYADSVKGRFTISRDNSKNTLYLQMSNLTAEDTAVYYCARAVPHSPSAFDRWGQGTLVTVSS ?
~1 nM

Name the recorded EC50 (read off the curve) for CL30 (antibody, human IgG1, V domains shown, Human heavy-chain-only antibody (HCAb): two heavy chains, no light chain; also called clone 30) VH: EVQLEETGGDLIQPGGSLRLSCTASGFNVSRIYMSWVRQAPGKGLEWVSVIYSGGSIYYADSVRGRFTISRDSSTNTVYLQMNSLRAEDSAVYYCARAVPHAPSNFDKWGQGTRVTVSS .
~1 nM

# get_value(readout='EC50 (read off the curve)', item= CL24 (antibody, human IgG1, V domains shown, Human heavy-chain-only antibody (HCAb): two heavy chains, no light chain) VH: EVQLVETGGGLIQPGGSLRLSCAASGLNVSRHYLSWVRQAPGKGLEWVAVIYSGGGIEYVDSVKGRFTISRDNANNTLYLQMRSLRTEDSAVYYCARAIPRPHGSDIWGQGTMVTVSS )
~1 nM
